# Tested on: NCI-H522 lung
# Test Description: NCI-60 one-dose screen, 48 h (100 = growth as untreated, 0 = no growth, -100 = all killed)
# Condition Description: 10 µM unless noted
The panel holds about 83,000 compounds, 20% with a hit somewhere; the sample as a whole holds those more often.
Sorting guide: entries reporting growth beneath 50% go in the true (1) pile, the rest go in the false (0) pile.

In: Take the molecule `C=C(C)[C@@H]1CC[C@]2(C=NCCCNCCCCNCCCN)CC[C@]3(C)[C@H](CC[C@@H]4[C@@]5(C)CCCNC(C)(C)[C@@H]5CC[C@]43C)[C@@H]12` and say whether its growth is less than 50%.
Out: false (0)

In: And CN(C)CCCC1(c2ccc(F)cc2)OCc2cc(-c3ccc(C(F)(F)F)nc3)ccc21 (stereo not given) ?
Out: false (0)

In: And `N=c1ccc2nc3c(cc(N)c4ccccc43)oc-2c1` ?
Out: true (1)

In: And `O=C1OC(c2ccc(Cl)c(Cl)c2)=C/C1=C/c1cccc([N+](=O)[O-])c1` ?
Out: false (0)

In: And `CC(=O)n1c(/C(C#N)=C/c2ccc(N(C)C)cc2)cc2ccccc21` ?
Out: true (1)

In: And O=C1CCN2C(=O)Nc3ccccc3C2C1 (stereo not given) ?
Out: false (0)

In: And `CN(C)c1ccc(N)c2ccccc12` ?
Out: false (0)

In: And `Cc1ccc(-c2nc([P+](c3ccccc3)(c3ccccc3)c3ccccc3)c(N3CCOCC3)o2)cc1` ?
Out: true (1)

In: And `Cc1cc(N2CCN(C)CC2)nc(N(CCNc2ccnc3cc(Cl)ccc23)Cc2ccco2)n1` ?
Out: false (0)

In: And `CC1(C)C(=O)/C(=C\c2ccccn2)C[C@]2(C)[C@H]3CC[C@@H]4[C@@H](C(=O)/C=C/c5ccccn5)CC[C@@]4(C)[C@]3(C)CC[C@@H]12` ?
Out: true (1)

In: And `O=[N+]([O-])c1cc(S(=O)(=O)c2ccc(F)c([N+](=O)[O-])c2)ccc1F` ?
Out: false (0)

In: And `N#C/C(=C\c1ccc(-c2cccc(C(F)(F)F)c2)o1)c1nc(-c2ccco2)cs1` ?
Out: false (0)

In: And N#CC1=C(N)Oc2c(sc3c(F)cccc23)C1c1ccc(Cl)cc1 (stereo not given) ?
Out: true (1)

In: And `COc1cc(OC)c2c(c1)c1nc3cc(C)c(C)cc3nc1n2CCN(C)C` ?
Out: false (0)

In: And `Nc1c(C(=O)Nc2cccc(Br)c2)sc2nc3c(cc12)C(=O)CCC3` ?
Out: true (1)

In: And CCCCCC1CCCCN1C(=O)OCC (stereo not given) ?
Out: false (0)

In: And `COc1ccc(OC)c(-c2c(C#N)c(-c3ccco3)nc3c2c(-c2ccccc2)nn3-c2ccccc2)c1` ?
Out: false (0)

In: And `COc1ccc(-c2cc(/C=C/C(=O)c3ccc(N)cc3)[nH]n2)cc1` ?
Out: true (1)

In: And `Oc1cc(/C=C/c2nc(N3CCOCC3)c3cc(Cl)c(Cl)cc3n2)cc(O)c1O` ?
Out: false (0)
